Target: SARS-CoV-2 N protein-RNA1 interaction (Severe acute respiratory syndrome coronavirus 2, UniProt P0DTC9)
Construct: made in house; host or cells: Escherichia coli BL21 (DE3)
Test: biochemical
Assay type: binding
Conditions: IC50 for blocking the N protein-RNA1 interaction
Mark rule met for IC50 under 8 µM, rule not met if at or over.

[
  {
    "smiles": "Cc1ccnc(NS(=O)(=O)c2ccc(N)cc2)n1",
    "groupLabel": "rule met"
  },
  {
    "smiles": "Oc1c(Cl)cc(Cl)c(Cl)c1Cc1c(O)c(Cl)cc(Cl)c1Cl",
    "groupLabel": "rule not met"
  },
  {
    "smiles": "COc1cc(C(=O)NS(=O)(=O)c2ccccc2C)ccc1Cc1cn(C)c2ccc(NC(=O)OC3CCCC3)cc12",
    "groupLabel": "rule not met"
  },
  {
    "smiles": "O=C(O)c1cc(O)c(O)c(O)c1",
    "groupLabel": "rule not met"
  }
]

----------
Biological target: SARS-CoV-2 N protein-RNA1 interaction (Severe acute respiratory syndrome coronavirus 2, UniProt P0DTC9)
Construct: made in house; host or cells: Escherichia coli BL21 (DE3)
Experiment: biochemical
Assay type: binding
Conditions: IC50 for blocking the N protein-RNA1 interaction
Numbered stars: 1 amine (or outer) side, 2 acyl side, 3 side chain; on linkers, the order of the positions; unused ones are H or OH. Bridge positions count the residues as written; N and C are the ends. Square brackets hold non-standard residues; d marks the D form. Peptide text beside a SMILES is read from it. * marks the point of attachment. hTyr(3S-OH,4S-OH,3'-OSO3H) = N[C@H](C(=O)O)[C@H](O)[C@@H](O)c1ccc(O)c(OS(=O)(=O)O)c1; Orn(4R-OH,5R-OH) = O=C([C@H](C[C@@H](O)[C@@H](O)N[*:3])N[*:1])[*:2]; Pro(3S-OH,4S-Me) = C[C@H]1CN[C@H](C(=O)O)[C@H]1O; X1 = CCCCCOc1ccc(-c2cc(-c3ccc(C(=O)*)cc3)no2)cc1; Gln(3R-OH) = NC(=O)C[C@@H](O)[C@H](N)C(=O)O; X2 = CC(C)CCCCCCCCC[C@H](CC(=O)[*:1])O[*:2]; Hyp = O=C(O)[C@@H]1C[C@@H](O)CN1
readoutLabel: IC50

[
  {
    "molecule": "CCCCCCCCCCCC1=C(O)C(=O)C=C(O)C1=O",
    "dataValue": "5 µM"
  },
  {
    "molecule": "O=C1O[C@H]2[C@@H]3OC(=O)c4cc(O)c(O)c(O)c4-c4c(O)c(O)c5oc(=O)c6c(c(O)c(O)c7oc(=O)c4c5c76)-c4c(cc(O)c(O)c4O)C(=O)OC[C@H]3OC(O)[C@@H]2OC(=O)c2cc(O)c(O)c(O)c2-c2c1cc(O)c(O)c2O (mixture of isomers)",
    "dataValue": "0.7 µM"
  },
  {
    "molecule": "CN(Cc1ccc(C(C)(C)C)cc1)Cc1cccc2ccccc12",
    "dataValue": "15.7 µM"
  },
  {
    "molecule": "COc1ccc2c(O[C@@H]3C[C@H]4C(=O)N[C@]5(C(=O)NS(=O)(=O)C6CC6)C[C@H]5/C=C\\CCCCN(C)C(=O)[C@@H]4C3)cc(-c3nc(C(C)C)cs3)nc2c1C",
    "dataValue": "16.5 µM"
  },
  {
    "molecule": "COc1cc(C(=O)O)ccc1NC(=O)[C@@H]1N[C@@H](CC(C)(C)C)[C@](C#N)(c2ccc(Cl)cc2F)[C@H]1c1cccc(Cl)c1F",
    "dataValue": "6.5 µM"
  },
  {
    "molecule": "C[C@@H]1NC(=O)[C@@H]2CCCN2C(=O)[C@H](CC(N)=O)NC(=O)[C@@H]2CSSC[C@H](N)C(=O)N[C@H]3CSSC[C@H](NC1=O)C(=O)N[C@@H]([C@@H](C)O)C(=O)NCC(=O)N[C@H](C(=O)N[C@@H](Cc1ccc(O)cc1)C(=O)O)CSSC[C@H](NC(=O)[C@H](Cc1ccc(O)cc1)NC(=O)[C@H](CCC(=O)O)NC3=O)C(=O)N2 [Linaclotide] (H-CCEYCCNPACTGCY-OH; disulfide 1-6, 2-10, 5-13)",
    "dataValue": "5.5 µM"
  },
  {
    "molecule": "O=C(O[C@@H]1O[C@@H]2COC(=O)c3cc(O)c(O)c(O)c3-c3c(cc(O)c(O)c3O)C(=O)O[C@H]([C@H]1O)[C@@H]2O)c1cc(O)c(O)c(O)c1",
    "dataValue": "2.4 µM"
  },
  {
    "molecule": "Oc1c(Cl)cc(Cl)cc1Sc1cc(Cl)cc(Cl)c1O",
    "dataValue": "23 µM"
  },
  {
    "molecule": "O=C1OC[C@H]2OC(O)[C@H](O)[C@@H](O)[C@@H]2OC(=O)c2cc(O)c(O)c(O)c2-c2c(O)c(O)c3oc(=O)c4c(c(O)c(O)c5oc(=O)c2c3c54)-c2c1cc(O)c(O)c2O (mixture of isomers)",
    "dataValue": "0.7 µM"
  },
  {
    "molecule": "CC(C)CCCCCCCCC[C@@H]1CC(=O)N[C@@H](CCC(=O)O)C(=O)N[C@@H](CC(C)C)C(=O)N[C@H](CC(C)C)C(=O)N[C@@H](C(C)C)C(=O)N[C@@H](CC(=O)O)C(=O)N[C@H](CC(C)C)C(=O)N[C@@H](CC(C)C)C(=O)O1 [Surfactin] (EL[dL]VD[dL]L; linker N-C via X2)",
    "dataValue": "11.1 µM"
  },
  {
    "molecule": "O=c1ccc2[n+]([O-])c3ccc(O)cc3oc-2c1",
    "dataValue": "10.5 µM"
  },
  {
    "molecule": "CCCCCOc1ccc(-c2cc(-c3ccc(C(=O)N[C@H]4C[C@@H](O)[C@@H](O)NC(=O)[C@@H]5[C@@H](O)[C@@H](C)CN5C(=O)[C@H]([C@H](O)CC(N)=O)NC(=O)[C@H]([C@H](O)[C@@H](O)c5ccc(O)c(OS(=O)(=O)O)c5)NC(=O)[C@@H]5C[C@@H](O)CN5C(=O)[C@H]([C@@H](C)O)NC4=O)cc3)no2)cc1 [Micafungin] (X1-[Orn(4R-OH,5R-OH)]T[Hyp][hTyr(3S-OH,4S-OH,3'-OSO3H)][Gln(3R-OH)][Pro(3S-OH,4S-Me)]; lactam 1-C)",
    "dataValue": "10.4 µM"
  },
  {
    "molecule": "Cc1ccc(C(=O)Nc2ccc(S(=O)(=O)O)c3cc(S(=O)(=O)O)cc(S(=O)(=O)O)c23)cc1NC(=O)c1cccc(NC(=O)Nc2cccc(C(=O)Nc3cc(C(=O)Nc4ccc(S(=O)(=O)O)c5cc(S(=O)(=O)O)cc(S(=O)(=O)O)c45)ccc3C)c2)c1",
    "dataValue": "0.8 µM"
  },
  {
    "molecule": "O=C(OC[C@H]1O[C@@H](OC(=O)c2cc(O)c(O)c(O)c2)[C@H](OC(=O)c2cc(O)c(O)c(O)c2)[C@@H](OC(=O)c2cc(O)c(O)c(O)c2)[C@@H]1OC(=O)c1cc(O)c(O)c(O)c1)c1cc(O)c(O)c(O)c1",
    "dataValue": "11.6 µM"
  },
  {
    "molecule": "CCCCCCO[C@@H](C)c1cccc(-c2csc(NC(=O)c3cc(Cl)c(/C=C(\\C)C(=O)O)c(Cl)c3)n2)c1OC",
    "dataValue": "6 µM"
  },
  {
    "molecule": "CC(C)=CCOc1ccc(/C=C/C(=O)c2ccc(OCC=C(C)C)cc2OCC(=O)O)cc1",
    "dataValue": "18.5 µM"
  },
  {
    "molecule": "O=C(Nc1cccc2c(=O)cc(-c3nnn[nH]3)oc12)c1ccc(OCCCCc2ccccc2)cc1 [Pranlukast (hemihydrate), Pranlukast]",
    "dataValue": "7.8 µM"
  },
  {
    "molecule": "O=C(O)c1cc(O)c2c(c1)[C@H]([C@H]1c3cc(C(=O)O)cc(O)c3C(=O)c3c(O[C@@H]4O[C@H](CO)[C@@H](O)[C@H](O)[C@H]4O)cccc31)c1cccc(O[C@@H]3O[C@H](CO)[C@@H](O)[C@H](O)[C@H]3O)c1C2=O [Sennoside A]",
    "dataValue": "5.7 µM"
  }
]
